- Substrate: CC(=O)Oc1ccc([N+](=O)[O-])cc1
- Test name: purified protein
- Assay type: biochemical, Sutcliffiella cohnii
- Condition context: 50 mM Tris-HCl pH 8.0, 20 °C
Endpoint name: kcat/Km

[[record]]
protein = "EstN7 (Sutcliffiella cohnii; N211A) (protein, recombinant, purified from E. coli BL21(DE3); dimer; catalytic triad S157, D254, H284) MKNRIDPELRAMLDMFPPLNLDDVQATRKAMEEAAQLTELPVDEEVVVSNRMVPGPEDNPYVRVRIYEPKEKIEKLPGLLWIHGGGYVLGAPEGDDLLCQRFVKEANCVVVSVDYRLAPEHPYPAPLEDCYAALQWFAKKVDELGVDASRIGVGGQSAGGGLTAALALLARDRKGPELCFQMPLYPMIDDKNNSPSSLEITGNLIWNHDLAEKGWSMYLDGKNGTDDVPVHAAPARATDLTNLPYTYTCVGQLDPFRDETLDYVKRLCQAGVDVEFHLYPGAYHGFETLNPAAAVSQRALAEYVGAVKHVLNREKVVERK"
observed_measurement = "374000 M⁻¹ s⁻¹"


Source: paper PMC9100969
